# experimental-details: Caco-2 permeability
# Format: in vitro ADME
# condition-summary: human, apical to basolateral, 10 μM, 2 hours, read-out: Permeability, Mean, Caco-2 A-B Perm
Give Papp A→B at 2 h, 10 μM for every item shown.
Your answer should be a plain number; it is taken to be in ×10⁻⁶ cm/s.

Q. Find the recorded Papp A→B at 2 h, 10 μM belonging to CC[C@H](O)[C@@H](C)[C@H]1O[C@@H]1C[C@@](C)(O)/C=C/C=C(\C)[C@H]1OC(=O)C[C@H](O)CC[C@@](C)(O)[C@@H](OC(=O)N2CCNCC2)/C=C/[C@@H]1C [D1] and report it.
A. 0.2

Q. Find the recorded Papp A→B at 2 h, 10 μM belonging to CC[C@H](O)[C@@H](C)[C@H]1O[C@@H]1C[C@@](C)(O)/C=C/C=C(\C)[C@H]1OC(=O)C[C@H](O)CC[C@@](C)(OC(C)=O)[C@@H](OC(=O)N2CCNCC2)/C=C/[C@@H]1C [D2] and report it.
A. 0.94
